// values below are reported IC50
- target: Serine/threonine-protein kinase DCLK1 (Homo sapiens)
- Sequence (O15075 whole entry, the tested form may be a part): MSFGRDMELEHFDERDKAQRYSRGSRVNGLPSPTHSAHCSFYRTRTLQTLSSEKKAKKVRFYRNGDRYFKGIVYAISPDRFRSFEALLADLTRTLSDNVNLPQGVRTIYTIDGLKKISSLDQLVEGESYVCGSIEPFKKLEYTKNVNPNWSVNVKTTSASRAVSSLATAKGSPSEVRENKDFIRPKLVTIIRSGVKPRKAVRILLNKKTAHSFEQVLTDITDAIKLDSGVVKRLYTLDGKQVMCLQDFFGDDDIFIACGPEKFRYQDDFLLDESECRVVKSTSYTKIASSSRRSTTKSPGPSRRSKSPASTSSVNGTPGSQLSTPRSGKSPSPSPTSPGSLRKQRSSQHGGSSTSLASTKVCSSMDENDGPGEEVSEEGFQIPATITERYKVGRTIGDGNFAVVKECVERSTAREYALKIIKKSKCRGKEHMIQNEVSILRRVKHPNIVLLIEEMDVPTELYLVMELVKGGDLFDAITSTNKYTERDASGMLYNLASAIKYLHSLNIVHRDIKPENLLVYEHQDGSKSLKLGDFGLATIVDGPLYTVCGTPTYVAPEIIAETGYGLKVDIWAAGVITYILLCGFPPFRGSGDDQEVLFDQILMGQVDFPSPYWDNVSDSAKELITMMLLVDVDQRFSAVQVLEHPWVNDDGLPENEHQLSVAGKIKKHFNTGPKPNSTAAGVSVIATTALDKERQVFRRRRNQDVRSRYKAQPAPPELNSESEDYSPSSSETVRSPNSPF
- assay.overview: Inhibition of recombinant human N-terminal His6-tagged DCLK1 (G351 to H689 residues) expressed in Escherichia coli BL21 DE3 using 5-FAM-KKLRRTLSVA-COOH as substrate measured after 2 hrs by mobility shift assay
Report the value in nM with no unit label.

[
  {
    "compound.string": "CCN1c2ccccc2C(=O)N(C)c2cnc(Nc3ccc(N4CCN(C)CC4)cc3OC)nc21",
    "measurement": 154
  }
]

Task: Request the reported IC50 associated with COc1cc(N2CCN(C)CC2)ccc1Nc1ncc2c(n1)N(C)c1ccccc1C(=O)N2CC(F)(F)F
Output: 17

Task: GET /values?readout=IC50&item= CN1C(=O)c2ccccc2N(C)c2nc(Nc3ccc(S(N)(=O)=O)cc3)ncc21
Output: 187

Task: Looking for the measured IC50 of CCOc1cc(N2CCC(O)CC2)ccc1Nc1ncc2c(n1)N(C)c1ccccc1C(=O)N2C , can you help?
Output: 716
